Measured kon values are reported for all entries that follow.
# SYSTEM_NAME: α-cobratoxin (Naja kaouthia, UniProt P01391)
# Sequence (P01391 whole entry): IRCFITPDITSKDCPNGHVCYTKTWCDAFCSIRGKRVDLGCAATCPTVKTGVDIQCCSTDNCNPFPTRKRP
PROPERTY_MEASURED: kon (M⁻¹ s⁻¹)

BINDER: anti-α-cobratoxin VHH C20 (VHH) VHH: QVKLEESGGGLVQPGGSLRLSCVGSGSISSFNGMGWYRQVPGKQRELVAFISSGGRSKYTDSVKGRFTISGDNAKSTVYLQMINLKPEDTAVYYCNVGSVLSYVTGNYYEPSDYWGQGTQVTVSS
READING: 1.8e+06

BINDER: anti-α-cobratoxin VHH C19 (VHH) VHH: QVKLEESGGGLAQAGGSLRLSCIGSGDISSFNAMGWYRQVPGKQRELVAFISSGGRSKYTDSVKGRFTISGDNAKNTVYLQMIDLKPEDTAVYYCNAGSVVSYETGNYYEPSNYWGQGTQVTVSS
READING: 580000

BINDER: anti-α-cobratoxin VHH C2 (VHH) VHH: QVKLEESGGGLVLPGGSLRLSCAASGSISSIYAMGWYRQAPGKQREVVAVITNGNSPNYADSVKGRFTISRDNAKNTVYLQMNSLKPEDTAVYYCNVEGVRYGDSWYDGDYWGQGTQVTVSS
READING: 520000

BINDER: anti-α-cobratoxin VHH C43 (VHH) VHH: RVKLEESGGGLVQAGGSLRLSCAVSGSTFDDYAIGWYRQAPGKQREVVAVITNGNSPNYADSVKGRFTISRDNAKNTVYLQMNSLKPEDTAVYYCNVEGVRYGDSWYDGDYWGQGTQVTVSS
READING: 290000

Hey, just so you know, these numbers are from patent US20120003245A1.
